B1: TPR 5TU (parent)
chain: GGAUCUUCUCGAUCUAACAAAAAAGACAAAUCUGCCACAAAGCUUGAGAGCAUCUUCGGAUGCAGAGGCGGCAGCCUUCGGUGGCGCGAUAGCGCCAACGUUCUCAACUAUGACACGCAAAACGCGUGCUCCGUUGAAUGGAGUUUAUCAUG

variants of: B1; experiment: polymerase ribozyme fitness, log enrichment relative to wild type (log ratio); higher = more active; in vitro selection for triplet polymerase activity
Variants at the floor of the assay were thinned out.

variant-description: U55G C75G C76G G84U C118A U139C
polymerase ribozyme fitness (log ratio): ≤ -4.2

variant-description: U44A G62A G84A U134A
polymerase ribozyme fitness (log ratio): ≤ -4.2

variant-description: A22C C27U C54U C85G A91U G112A A119U A147C A150C
polymerase ribozyme fitness (log ratio): ≤ -4.2

variant-description: A30G A49C G88U A110G
polymerase ribozyme fitness (log ratio): ≤ -4.2

variant-description: C27U G83A C125U U130G U135G
polymerase ribozyme fitness (log ratio): ≤ -4.2

variant-description: A21U A47C A52C A60G C85G C87A A121C
polymerase ribozyme fitness (log ratio): ≤ -4.2

variant-description: G42A G94U
polymerase ribozyme fitness (log ratio): ≤ -4.2

variant-description: G42C A66C
polymerase ribozyme fitness (log ratio): ≤ -4.2

variant-description: A39C U44C C93U C108G A121C U139G
polymerase ribozyme fitness (log ratio): ≤ -4.2

variant-description: G71U G80C C95U U127A
polymerase ribozyme fitness (log ratio): -3.97

variant-description: A17U A21G C27G A28U C85A C87U C95G
polymerase ribozyme fitness (log ratio): ≤ -4.2

variant-description: A20U G81A A89G C93U C129U
polymerase ribozyme fitness (log ratio): -3.56

variant-description: A29U U33A U102G A113U U144C
polymerase ribozyme fitness (log ratio): ≤ -4.2

variant-description: G62C C76U U139G
polymerase ribozyme fitness (log ratio): -3.09

variant-description: A3U U7A C14A A41C U45G C69A C87A G94A A121C
polymerase ribozyme fitness (log ratio): ≤ -4.2
